- System: Fibroblast
- assay procedure: Multiplex assay against human fibroblast
- Assay type: toxicity, cell-based
- test conditions: 48 h, 10 µM, compound concentration 10 uM, replicate 1
Would you mind sorting the entries by Population Mitochondria Different-Phenotype (%) according to these classes? label 0 = under 6%, label 1 = from 6% up to 20%, label 2 = 20% and over

Worked examples follow.
| compound | class label |
| --- | --- |
| O=C(NCC(=O)N1CC[C@H](N[C@H]2CC[C@@](O)(c3ccc(-c4ncccn4)cn3)CC2)C1)c1cccc(C(F)(F)F)c1 | label 1 |
| C[C@@H]1C[C@H]2[C@@H]3CCC4=CC(=O)C=C[C@]4(C)[C@@]3(F)[C@@H](O)C[C@]2(C)[C@@]1(O)C(=O)CO | label 1 |
| CN(C)c1ccnc2sc3c(=O)n(N4CCCCCC4)cnc3c12 | label 2 |

*Q* The entry to classify is Cc1ccccc1C(=O)Nc1ccc(C(=O)N2CCCC(N(C)C)c3ccccc32)cc1.Cl (stereo unspecified) ; which class holds it?
*A* label 1

*Q* Categorize the following entry: N#Cc1c(N)nc(SCc2csc(-c3ccc(Cl)cc3)n2)c(C#N)c1-c1ccc(OCCO)cc1
*A* label 2

*Q* Which bin should I file CN1CCN(c2nc3cc(C(F)(F)F)ccc3n3cccc23)CC1.O=C(O)/C=C\C(=O)O.O=C(O)/C=C\C(=O)O under?
*A* label 2

*Q* Which category does the recorded Population Mitochondria Different-Phenotype (%) put CSc1ccccc1N1CCN(CCCCCC(=O)NC2CCCc3ccccc32)CC1.Cl (stereo unspecified) in?
*A* label 2

*Q* State the class of the compound shown: C[C@H]1[C@H]2CC[C@H]3[C@@H]4CC=C5C[C@@H](N(C)C)CC[C@]5(C)[C@H]4CC[C@]23CN1C
*A* label 0

*Q* Field: class (Population Mitochondria Different-Phenotype (%)) — entry: COc1cc(C(=O)N(CCCc2ccccc2)Cc2ccc(CC(=O)O)cc2)cc(OC)c1C
*A* label 0

---

- System: U2OS
- assay procedure: Multiplex assay against U2OS
- Format: toxicity, cell-based
- test conditions: human, 24 h, 10 µM, compound concentration 10 uM, replicate 1
endpoint name: Population Normal (%)
// note: answer is a bare numeric in %

| compound | endpoint name | val |
| --- | --- | --- |
| Cc1ccc(/C(=C\CN2CCCC2)c2ccccn2)cc1 | Population Normal (%) | 97 |
| CCOc1c2c(c(OCC)c3ncccc13)CN(c1ccc(CS(=O)(=O)NC(=O)Cc3ccccc3OC)cc1C)C2=O | Population Normal (%) | 96 |

*Q* Value lookup for Population Normal (%); key = CC(=O)NCCc1c(Cc2ccccc2)[nH]c2ccccc12
*A* 97

*Q* Item Oc1c(CN2CCN(c3ccccn3)CC2)cc(Cl)c2cccnc12 has what recorded Population Normal (%)?
*A* 95

*Q* Query: Population Normal (%); subject: Cc1nc2ccc(Oc3ccc(F)cc3)cc2c(=O)n1C[C@H]1CCCN(C(C)C)C1.Cl
*A* 95

---

- Tested on: U2OS
- assay procedure: Multiplex assay against U2OS
- Type: toxicity, cell-based
- test conditions: human, 48 h, 1 µM, compound concentration 1 uM, replicate 1
endpoint name: Population Apoptotic (%)
Numeric only. Scale: %

Example entries and their recorded answers appear below.
| molecule | Population Apoptotic (%) |
| --- | --- |
| O=S(=O)(c1ccccc1)c1cnc2c(N3CCNCC3)cccc2c1 [INTEPIRDINE] | 89 |
| Cc1ccc(/C(=C\CN2CCCC2)c2ccccn2)cc1 | 86 |
| N#Cc1c(N)nc(SCc2csc(-c3ccc(Cl)cc3)n2)c(C#N)c1-c1ccc(OCCO)cc1 | 80 |
| CCNC1(C(N)=O)CCN(c2ncnc3c2nc(-c2ccccc2Cl)n3-c2ccc(Cl)cc2)CC1 | 86 |
| CCOc1c2c(c(OCC)c3ncccc13)CN(c1ccc(CS(=O)(=O)NC(=O)Cc3ccccc3OC)cc1C)C2=O | 85 |

*Q* Item: CCCN1CCC[C@@H]2Cc3n[nH]cc3C[C@H]21.Cl [QUINPIROLE HYDROCHLORIDE] Test system: U2OS Read-out: Population Apoptotic (%) Value: ?
*A* 75

*Q* Which measured Population Apoptotic (%) belongs to CC(C)(C)c1ccc(S(=O)(=O)Nc2ccc(Cl)cc2C(=O)c2cc[n+]([O-])cc2)cc1 , tested on U2OS?
*A* 82

*Q* Reported Population Apoptotic (%) for U2OS, given Cc1ccc(-c2ccc(F)cc2COc2ccc(CCC(=O)O)cc2)cc1 ?
*A* 89

*Q* Hello, I am looking for reported Population Apoptotic (%) with U2OS for Cc1ccccc1C(=O)Nc1ccc(C(=O)N2CCCC(N(C)C)c3ccccc32)cc1.Cl (centres undefined) . Could you help?
*A* 85

*Q* Notebook: pull reported Population Apoptotic (%) for U2OS, entry Cc1ccc(F)cc1C(=O)Nc1ccc(C(=O)N2Cc3cccn3Cc3ccccc32)c(Cl)c1
*A* 87

*Q* Entry N[C@@]1(C(=O)O)CO[C@H]2[C@H](C(=O)O)[C@H]21 , system U2OS: what Population Apoptotic (%) was measured?
*A* 92

*Q* What Population Apoptotic (%) appears in the records for this molecule with U2OS? Oc1c(CN2CCN(c3ccccn3)CC2)cc(Cl)c2cccnc12
*A* 94

*Q* Entry O=C1COc2nccc(-c3ccccc3F)c2CN1Cc1cc(C(F)(F)F)cc(C(F)(F)F)c1 , system U2OS: what Population Apoptotic (%) was measured?
*A* 84

*Q* Notebook: pull reported Population Apoptotic (%) for U2OS, entry C[C@H](NC(=O)c1c(C(F)F)nn(C)c1Oc1cccc(C(F)(F)F)c1)c1ccc(C(=O)O)cc1
*A* 82
